# inhibition values compiled below
biological target: Insulin-like growth factor 1 receptor (Homo sapiens) (UniProt P08069); details: at 1 µM;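 also: each value is a mean percent inhibition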
Sequence (P08069 31-736 limits assumed): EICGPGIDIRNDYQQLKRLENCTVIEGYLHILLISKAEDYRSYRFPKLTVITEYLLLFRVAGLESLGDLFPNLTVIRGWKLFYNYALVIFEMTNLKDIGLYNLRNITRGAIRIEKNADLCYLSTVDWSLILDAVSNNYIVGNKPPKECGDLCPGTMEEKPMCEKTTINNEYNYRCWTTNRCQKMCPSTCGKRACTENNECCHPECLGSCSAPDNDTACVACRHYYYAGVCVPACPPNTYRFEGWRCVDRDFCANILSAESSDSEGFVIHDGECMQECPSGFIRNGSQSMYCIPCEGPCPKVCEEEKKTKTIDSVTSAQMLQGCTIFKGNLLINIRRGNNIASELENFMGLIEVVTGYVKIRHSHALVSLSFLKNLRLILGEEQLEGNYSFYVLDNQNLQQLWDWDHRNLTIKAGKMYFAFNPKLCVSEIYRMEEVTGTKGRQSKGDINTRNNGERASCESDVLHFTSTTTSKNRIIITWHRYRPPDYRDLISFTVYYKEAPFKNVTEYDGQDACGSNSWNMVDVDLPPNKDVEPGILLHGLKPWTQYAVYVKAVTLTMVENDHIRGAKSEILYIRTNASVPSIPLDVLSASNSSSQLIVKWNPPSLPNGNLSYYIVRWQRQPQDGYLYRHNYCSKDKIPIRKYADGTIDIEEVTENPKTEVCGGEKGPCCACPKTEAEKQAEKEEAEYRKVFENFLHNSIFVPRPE
Sequence (P08069 741-1367 limits assumed): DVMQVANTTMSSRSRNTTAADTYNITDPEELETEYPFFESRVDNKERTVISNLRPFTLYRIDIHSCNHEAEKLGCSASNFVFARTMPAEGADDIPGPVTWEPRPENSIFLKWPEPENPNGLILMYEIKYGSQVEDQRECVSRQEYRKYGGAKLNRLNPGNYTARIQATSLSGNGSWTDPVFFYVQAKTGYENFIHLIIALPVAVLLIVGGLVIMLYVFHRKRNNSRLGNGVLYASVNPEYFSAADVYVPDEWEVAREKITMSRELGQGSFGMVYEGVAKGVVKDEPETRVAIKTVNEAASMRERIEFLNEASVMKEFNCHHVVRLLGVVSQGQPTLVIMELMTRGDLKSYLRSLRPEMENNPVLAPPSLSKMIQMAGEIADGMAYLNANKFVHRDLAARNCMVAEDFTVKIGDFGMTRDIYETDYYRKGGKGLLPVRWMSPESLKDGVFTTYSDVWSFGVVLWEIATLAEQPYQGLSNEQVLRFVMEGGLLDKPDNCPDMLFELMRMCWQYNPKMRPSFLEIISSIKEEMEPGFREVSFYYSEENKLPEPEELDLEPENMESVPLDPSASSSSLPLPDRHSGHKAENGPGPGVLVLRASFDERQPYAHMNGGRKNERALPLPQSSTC

Item smiles | inhibition (%)
O=C(Nc1n[nH]c2nc(-c3ccc(O)cc3)c(Br)cc12)C1CC1 | 5.83
NC(=O)Cc1ccccc1Oc1nccc(-c2c(-c3ccc(F)cc3)ncn2C2CCNCC2)n1 | 3.6
Cc1ccc(NC(=O)c2ccoc2)cc1-c1ccc(C(=O)NCC2CC2)cc1 | 1.25
O=C(NCC1CC1)c1ccc(-c2cccc(C(=O)NC3CC3)c2)cc1 | 4.73
COc1cc2ncn(-c3cc(OCc4cccs4)c(C(N)=O)s3)c2cc1OC | -6.38
CS(=O)(=O)CCNCc1cc(-c2cc3c(Nc4ccc(OCc5cccc(F)c5)c(Cl)c4)ncnc3s2)cs1 | 4.5
COc1ccc2ncn(-c3cc(O[C@H](C)c4ccccc4Cl)c(C(N)=O)s3)c2c1 | -6.53
CN(C)CCCNc1nccc(-c2c(-c3ccc(F)cc3)nn3cc(C(F)(F)F)ccc23)n1 | -5.52
FC(F)(F)c1cccc(Nc2nccc(-c3cnn4nc(-c5ccccc5)ccc34)n2)c1 | -1.43
CS(=O)(=O)CCNCc1ccc(-c2ccc3ncnc(Nc4ccc(OCc5ccccc5)c(Br)c4)c3c2)o1 | -5.4
COc1cc(Nc2ncc3c(C)nc(-c4cccc(Oc5ccccc5)c4)n3n2)cc(OC)c1OC | 5.13
NC(=O)c1ccc(Oc2nccc(-c3c(-c4ccc(F)cc4)ncn3C3CCNCC3)n2)cc1 | 7.32
Fc1ccc(-c2ncn(C3CCNCC3)c2-c2ccnc(Oc3ccc(F)c(F)c3)n2)cc1 | -4.9
C[C@@H](Oc1cc(-n2cnc3ccc(OCC4CCN(C)CC4)cc32)sc1C(N)=O)c1ccccc1Cl | 7.27
COc1cc2ncn(-c3cc(OCc4ccccc4C(F)(F)F)c(C(C)=O)s3)c2cc1OC | 1.09
O=C(Nc1n[nH]c2cc(-c3ccccc3)ccc12)C1CC1 | 11.2
N#Cc1ccc(Oc2nccc(-c3c(-c4ccc(F)cc4)ncn3C3CCNCC3)n2)cc1 | 0.96
CN(c1ccc(NC(=O)Nc2c(Cl)cccc2Cl)cc1)c1ccnc(Nc2cccc(CS(C)(=O)=O)c2)n1 | 4.63
COc1cc2ncn(-c3cc(OCCc4ccccc4)c(C(N)=O)s3)c2cc1OC | 2.07

====

tested on: Platelet-derived growth factor receptor alpha (Homo sapiens), P16234 [V561D]; conditions: at 0.1 µM
Sequence (P16234 whole entry V561D): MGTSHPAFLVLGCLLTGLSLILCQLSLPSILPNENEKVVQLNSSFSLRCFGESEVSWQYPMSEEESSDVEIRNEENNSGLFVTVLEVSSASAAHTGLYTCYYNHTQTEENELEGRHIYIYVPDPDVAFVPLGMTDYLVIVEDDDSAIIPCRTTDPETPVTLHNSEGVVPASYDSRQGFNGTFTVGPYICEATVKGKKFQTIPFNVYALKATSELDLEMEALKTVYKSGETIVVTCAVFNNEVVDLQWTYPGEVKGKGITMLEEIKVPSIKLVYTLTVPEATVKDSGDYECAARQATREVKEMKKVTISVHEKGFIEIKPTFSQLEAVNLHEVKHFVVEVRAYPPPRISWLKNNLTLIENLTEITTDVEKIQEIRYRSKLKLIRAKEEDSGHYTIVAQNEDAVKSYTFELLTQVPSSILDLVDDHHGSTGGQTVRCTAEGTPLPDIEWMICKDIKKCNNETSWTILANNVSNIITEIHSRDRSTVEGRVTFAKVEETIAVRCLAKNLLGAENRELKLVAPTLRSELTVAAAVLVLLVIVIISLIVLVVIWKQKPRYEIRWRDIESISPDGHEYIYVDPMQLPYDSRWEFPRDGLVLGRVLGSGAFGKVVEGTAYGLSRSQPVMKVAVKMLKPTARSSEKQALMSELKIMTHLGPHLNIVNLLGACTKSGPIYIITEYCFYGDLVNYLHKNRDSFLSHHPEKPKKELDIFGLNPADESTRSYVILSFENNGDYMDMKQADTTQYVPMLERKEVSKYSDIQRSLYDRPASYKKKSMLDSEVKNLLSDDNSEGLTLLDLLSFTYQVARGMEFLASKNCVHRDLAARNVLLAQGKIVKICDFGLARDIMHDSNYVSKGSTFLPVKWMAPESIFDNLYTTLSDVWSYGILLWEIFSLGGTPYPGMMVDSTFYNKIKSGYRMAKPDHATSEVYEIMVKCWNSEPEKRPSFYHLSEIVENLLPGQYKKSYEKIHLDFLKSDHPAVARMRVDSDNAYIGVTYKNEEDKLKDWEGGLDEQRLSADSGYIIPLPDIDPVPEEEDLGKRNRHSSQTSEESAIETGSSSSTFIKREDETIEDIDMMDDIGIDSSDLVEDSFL
Endpoint label: inhibition

Item smiles | Result
c1ccc(-c2n[nH]cc2-c2ccnc(-c3ccc(OCCN4CCOCC4)cc3)c2)nc1 | 11.7%
COc1ccc2ncn(-c3cc(O[C@H](C)c4ccccc4Cl)c(C(N)=O)s3)c2c1 | 4.37%
Cc1ccc(NC(=O)c2ccoc2)cc1-c1ccc(C(=O)NCC2CC2)cc1 | 0.35%
O=C1Nc2ccc(I)cc2C1=Cc1cc(Br)c(O)c(Br)c1 | 3.34%
NS(=O)(=O)c1ccc(Nc2cc(-c3ccc(O)c(F)c3)n[nH]2)cc1 | 33.2%

====

# inhibition values compiled below
target: Serine/threonine-protein kinase PAK 2 (Homo sapiens) (UniProt Q13177); settings: at 0.1 µM;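 also: values are mean percent inhibition of PAK2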
Sequence (Q13177 whole entry): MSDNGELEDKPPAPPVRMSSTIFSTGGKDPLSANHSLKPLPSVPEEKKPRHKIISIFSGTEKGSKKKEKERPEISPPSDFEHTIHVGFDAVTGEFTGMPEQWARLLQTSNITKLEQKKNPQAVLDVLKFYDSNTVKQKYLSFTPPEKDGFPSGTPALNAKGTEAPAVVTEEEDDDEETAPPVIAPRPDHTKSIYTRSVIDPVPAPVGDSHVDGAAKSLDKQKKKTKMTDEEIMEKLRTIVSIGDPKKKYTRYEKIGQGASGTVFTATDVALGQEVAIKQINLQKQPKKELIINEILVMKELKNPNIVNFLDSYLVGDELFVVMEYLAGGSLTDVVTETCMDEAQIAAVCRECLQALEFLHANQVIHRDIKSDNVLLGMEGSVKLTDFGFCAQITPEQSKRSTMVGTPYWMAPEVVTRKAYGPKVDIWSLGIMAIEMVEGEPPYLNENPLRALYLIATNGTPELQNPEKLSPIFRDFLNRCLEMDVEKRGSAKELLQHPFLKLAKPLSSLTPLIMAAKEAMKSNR

Molecule | inhibition, %
NC(=O)Cc1ccccc1Oc1nccc(-c2c(-c3ccc(F)cc3)ncn2C2CCNCC2)n1 | 1.39
COC(=O)Nc1nc2ccc(Sc3ccc(NC(=O)Nc4cc(C(F)(F)F)ccc4F)cc3)cc2[nH]1 | 10.8
Nc1nccc(-c2c(-c3ccc(F)cc3)ncn2C2CCC(O)CC2)n1 (stereo unspecified) | -0.84
Fc1ccc(-c2ncn(C3CCNCC3)c2-c2ccnc(Oc3ccc(F)c(F)c3)n2)cc1 | 0.93
COc1cc(Nc2ncc3c(C)nc(-c4cccc(Oc5ccccc5)c4)n3n2)cc(OC)c1OC | 1.49
O=C(Nc1n[nH]c2nc(-c3ccc(O)cc3)c(Br)cc12)C1CC1 | 2.36
COc1cc2ncn(-c3cc(OCc4ccccc4C(F)(F)F)c(C(C)=O)s3)c2cc1OC | 0.85
O=C(Nc1ccc(Oc2ccc3[nH]c(NC(=O)c4ccccc4)nc3c2)cc1)Nc1cc(C(F)(F)F)ccc1F | 2.09
C[C@@H](Oc1cc(-n2cnc3ccc(OCC4CCN(C)CC4)cc32)sc1C(N)=O)c1ccccc1Cl | 3.01
COc1ccc2cc(-c3c(-c4ccncc4)nc(-c4ccc([S+](C)[O-])cc4C)n3C)ccc2c1 (stereo unspecified) | -1.29
COc1ccc(-c2ccc3c(NC(=O)C4CC4)n[nH]c3n2)cc1 | -1.11

====

target: Aurora kinase B (Homo sapiens); details: at 0.1 µM;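 also: reported values are averaged percent inhibition of Aurora B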
Endpoint label: inhibition (%)

Item smiles | Measurement target | Endpoint label | Unit abbreviation | Numeric result
NC(=O)c1cc(-c2ccncc2)cc(-c2ccccc2)c1N | Aurora kinase B (Homo sapiens) | inhibition | % | 3.91
O=C1NC(=O)C(c2cccc(Cl)c2)=C1Nc1ccc(Cl)c(C(=O)O)c1 | Aurora kinase B (Homo sapiens) | inhibition | % | 0.94
Cc1nnc(-c2ccc(C)c(-c3ccc(C(=O)NCc4ccc(Cl)cc4)cc3)c2)o1 | Aurora kinase B (Homo sapiens) | inhibition | % | -0.69
O=C(Nc1n[nH]c2cc(-c3cc(F)ccc3F)ccc12)C1CC1 | Aurora kinase B (Homo sapiens) | inhibition | % | 2.4
CN(C)CCCNc1nccc(-c2c(-c3ccc(F)cc3)nn3cc(C(F)(F)F)ccc23)n1 | Aurora kinase B (Homo sapiens) | inhibition | % | 0.91
c1ccc(Oc2ccc(Nc3ncc(-c4ccccc4)o3)cc2)cc1 | Aurora kinase B (Homo sapiens) | inhibition | % | 2.17
C#Cc1cccc(Nc2ncnc3ccc(OCCCCNCCS(C)(=O)=O)cc23)c1 | Aurora kinase B (Homo sapiens) | inhibition | % | -2.61
CN(C)CCOc1ccc(-c2cc(-c3ccc4c(c3)CCC4=NO)c(-c3ccncc3)o2)cc1 | Aurora kinase B (Homo sapiens) | inhibition | % | -1.06
Cc1ccc(C(=O)NC2CCC2)cc1-c1ccc(C(=O)NCC2CC2)cc1 | Aurora kinase B (Homo sapiens) | inhibition | % | 0.48
O=C(Nc1n[nH]c2nc(-c3ccc(O)cc3)c(Br)cc12)C1CC1 | Aurora kinase B (Homo sapiens) | inhibition | % | 4.29

====

# inhibition values compiled below
target: Serine/threonine-protein kinase 10 (Homo sapiens); settings: at 1 µM;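 also: reported value is the mean percent inhibition of LOK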
Endpoint label: inhibition (%)

Item smiles | Endpoint label | Unit abbreviation | Numeric result
NS(=O)(=O)c1ccc(N/N=C2\C(=O)Nc3ccc(C(=O)NCCCn4ccnc4)cc32)cc1 | inhibition | % | 12.2
CS(=O)(=O)CCNCc1cc(-c2cc3c(Nc4ccc(OCc5cccc(F)c5)c(Cl)c4)ncnc3s2)cs1 | inhibition | % | 12.9
COc1ccc2ncn(-c3cc(O[C@H](C)c4ccccc4Cl)c(C(N)=O)s3)c2c1 | inhibition | % | 59.1
COc1cc(Nc2ncc3c(C)nc(-c4cccc(Oc5ccccc5)c4)n3n2)cc(OC)c1OC | inhibition | % | 1.99
CCS(=O)(=O)c1ccc(OC)c(Nc2ncc(-c3ccccc3Cl)o2)c1 | inhibition | % | 6.5
Clc1ccc(CNc2nccc(-c3cnn4ncccc34)n2)cc1 | inhibition | % | 6.27
COc1cc(Nc2ncc3c(C)nc(-c4cccc(C(F)(F)F)c4)n3n2)cc(OC)c1OC | inhibition | % | 12.5
CCc1cccc(CC)c1/C=C/c1cncc(C(=O)NC)c1 | inhibition | % | 5.08
COc1cccc(-n2cnc3c(N/N=C/c4ccncc4)ncnc32)c1 | inhibition | % | 16.3
O=C(NCC1CC1)c1ccc(-c2cccc(C(=O)NC3CC3)c2)cc1 | inhibition | % | -0.77

====

molecular target: Tyrosine-protein kinase Lyn (Homo sapiens) (UniProt P07948); details: at 1 µM;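 also: mean percent inhibition of the LYN A splice variant of the kinase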
Sequence (P07948 2-512 limits assumed): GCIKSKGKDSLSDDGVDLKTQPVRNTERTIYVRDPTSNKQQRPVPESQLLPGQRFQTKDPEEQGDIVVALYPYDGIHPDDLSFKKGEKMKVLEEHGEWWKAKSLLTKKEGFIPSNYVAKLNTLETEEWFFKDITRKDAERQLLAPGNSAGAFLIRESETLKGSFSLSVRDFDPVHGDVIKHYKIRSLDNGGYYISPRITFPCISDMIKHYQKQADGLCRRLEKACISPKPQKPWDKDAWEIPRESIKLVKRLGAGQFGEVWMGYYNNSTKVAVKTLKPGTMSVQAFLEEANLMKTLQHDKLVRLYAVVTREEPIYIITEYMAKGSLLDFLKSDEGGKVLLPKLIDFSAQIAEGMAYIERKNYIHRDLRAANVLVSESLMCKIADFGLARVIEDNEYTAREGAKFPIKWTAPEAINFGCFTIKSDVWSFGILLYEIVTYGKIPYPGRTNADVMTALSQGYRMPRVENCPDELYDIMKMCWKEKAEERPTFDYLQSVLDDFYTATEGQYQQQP
Description: GSK_PKIS: LYN A (splice variant) mean inhibition at 1 uM [Nanosyn]
Assign fulfilled whenever inhibition does not fall below 7%; assign not fulfilled whenever it does.

Molecule | Class label
C/C(Nc1ccc(S(N)(=O)=O)cc1)=C1/C(=O)Nc2ccccc21 | fulfilled
N#Cc1ccc(Oc2nccc(-c3c(-c4ccc(F)cc4)ncn3C3CCNCC3)n2)cc1 | fulfilled
COc1cc(N2CCN(C(C)C)CC2)ccc1Nc1nc(Nc2ccc(F)cc2C(=O)NC[C@@H](O)CO)c2cc[nH]c2n1 | fulfilled
O=C1Nc2ccc(I)cc2C1=Cc1cc(Br)c(O)c(Br)c1 | fulfilled
Nc1nccc(-c2c(-c3ccc(F)cc3)ncn2C2CCC(O)CC2)n1 (centres undefined) | fulfilled
CN1CCN(CCCNc2nc3ccc(Oc4ccc(NC(=O)Nc5cc(C(F)(F)F)ccc5F)cc4)cc3[nH]2)CC1 | fulfilled
C#Cc1cccc(Nc2ncnc3ccc(OCCCCNCCS(C)(=O)=O)cc23)c1 | fulfilled
CCc1cccc(CC)c1/C=C/c1cncc(C(=O)NC)c1 | not fulfilled
O=C1Nc2ccccc2/C1=C/Nc1ccc(-n2cncn2)cc1 | fulfilled
NCc1ccc(-n2c(-c3nonc3N)nc3cnccc32)cc1 | not fulfilled
C[C@@H](Oc1cc(-n2cnc3ccc(OCC4CCN(C)CC4)cc32)sc1C(N)=O)c1ccccc1Cl | fulfilled
Fc1ccc(-c2ncn(C3CCNCC3)c2-c2ccnc(Oc3ccc(F)c(F)c3)n2)cc1 | not fulfilled
COc1cc(Nc2ncc(-c3ccccc3)o2)cc(OC)c1OC | fulfilled
COc1cccc(-n2cnc3c(N/N=C/c4ccncc4)ncnc32)c1 | fulfilled
CCc1nccc2c1nc(-c1nonc1N)n2CC | not fulfilled
NC(=O)Cc1ccccc1Oc1nccc(-c2c(-c3ccc(F)cc3)ncn2C2CCNCC2)n1 | not fulfilled
COc1ccc(-c2ccc3c(NC(=O)C4CC4)n[nH]c3n2)cc1 | not fulfilled
Clc1ccc(CNc2nccc(-c3cnn4ncccc34)n2)cc1 | not fulfilled
CCc1ccc(Oc2nccc(-c3c(-c4ccc(F)cc4)ncn3C3CCNCC3)n2)cc1 | not fulfilled
O=C(Nc1n[nH]c2nc(-c3ccco3)ccc12)C1CC1 | not fulfilled
O=C1NC(=O)C(c2cccc(Cl)c2)=C1Nc1ccc(Cl)c(C(=O)O)c1 | not fulfilled
Cc1ccc(NC(=O)c2ccoc2)cc1-c1ccc(C(=O)NCC2CC2)cc1 | not fulfilled
COc1ccc2cc(-c3c(-c4ccncc4)nc(-c4ccc([S+](C)[O-])cc4C)n3C)ccc2c1 (centres undefined) | fulfilled

Sourced from ChEMBL document CHEMBL1961873
